assay: Cytotoxicity in A549 cells (MTS/PMS); format: cell-based; settings: human; A549 cells (Table 6)
Reported Endpoint: CC50 at 4 days (µM)

molecule="COc1cc(NC(C(=O)c2c[nH]c3ccccc23)c2cnc(OC)cn2)cc(OC)c1 (stereo not drawn) [CPD-294]" readout_relation== observed_value=61
molecule="COc1cc(NC(C(=O)c2c[nH]c3ccccc23)c2ccc(C)nc2)cc(OC)c1 (stereo not drawn) [CPD-346]" readout_relation== observed_value=60
molecule="COc1cc(NC(C(=O)c2c[nH]c3ccccc23)c2cc3ccccn3n2)cc(OCCO)c1 (stereo not drawn) [CPD-336]" readout_relation=> observed_value=123
molecule="COc1cc(NC(C(=O)c2c[nH]c3ccc(F)cc23)c2ccccc2)cc(OC)c1 (stereo not drawn) [CPD-131]" readout_relation== observed_value=11
molecule="COc1cc(CO)cc(NC(C(=O)c2c[nH]c3ccc(F)cc23)c2cccnc2)c1 (stereo not drawn) [CPD-334]" readout_relation== observed_value=85
molecule="COc1cccc(NC(C(=O)c2c[nH]c3ccccc23)c2nc3ccccc3o2)c1 (stereo not drawn) [CPD-328]" readout_relation== observed_value=12
molecule="COc1cc(NC(C(=O)c2c[nH]c3ccccc23)c2cc3ccccn3n2)cc(OC)c1 (stereo not drawn) [CPD-293]" readout_relation=> observed_value=117
molecule="COc1cncc(NC(C(=O)c2c[nH]c3cc(F)ccc23)c2ccc(OC)nc2)c1 (stereo not drawn) [CPD-242]" readout_relation== observed_value=47
molecule="COc1cc(NC(C(=O)c2c[nH]c3ccccc23)c2cccnc2)cc(OC)c1 (stereo not drawn) [CPD-236]" readout_relation== observed_value=65

----------
test system: uninfected quiescent Vero-B cells; assay: Cytotoxic assay in uninfected quiescent Vero-B cells (MTS/PMS); conditions: 4 days (Table 3)
Reported Endpoint: CC50 (µM)

molecule="COc1cccc(NC(C(=O)c2c[nH]c3ccccc23)c2cc3ccccn3n2)c1 (centres unmarked) [CPD-083]" study_target="uninfected quiescent Vero-B cells" measure_unit=µM readout_relation== observed_value=26
molecule="COc1cccc(NC(C(=O)c2c[nH]c3ccccc23)c2ccccc2)c1OC (centres unmarked)" study_target="uninfected quiescent Vero-B cells" measure_unit=µM readout_relation=> observed_value=129
molecule="N#Cc1cccc(NC(C(=O)c2c[nH]c3ccccc23)c2ccccc2)c1 (centres unmarked)" study_target="uninfected quiescent Vero-B cells" measure_unit=µM readout_relation== observed_value=14
molecule="COc1cc(NC(C(=O)c2c[nH]c3ccccc23)c2ccccc2)cc(OCCCO)c1 (centres unmarked)" study_target="uninfected quiescent Vero-B cells" measure_unit=µM readout_relation== observed_value=50
molecule="CCOc1cc(NC(C(=O)c2c[nH]c3ccccc23)c2ccccc2)cc(OC)c1 (centres unmarked)" study_target="uninfected quiescent Vero-B cells" measure_unit=µM readout_relation== observed_value=13

----------
experiment: in vitro; details: African green monkey, uninfected quiescent Vero-B cells
Reported CC50 at 4 days values follow for various compounds
Reported Endpoint: CC50 at 4 days

compound="COc1cccc(NC(C(=O)c2c[nH]c3ccccc23)c2cnccn2)c1 (centres unmarked)" observed_value="100 µM"
compound="CCOc1ccc(NC(C(=O)c2c[nH]c3ccccc23)c2ccccc2)cc1CO (centres unmarked)" observed_value="50 µM"
compound="O=C(c1c[nH]c2ccccc12)C(Nc1cccc(-c2cnco2)c1)c1ccccc1 (centres unmarked)" observed_value="16 µM"
compound="CCOc1cccc(NC(C(=O)c2c[nH]c3ccccc23)c2ccccc2)c1 (centres unmarked)" observed_value="13 µM"
compound="COc1cccc(NC(C(=O)c2c[nH]c3ccccc23)c2cccs2)c1 (centres unmarked)" observed_value="14 µM"

----------
test: in vitro; conditions: African green monkey, uninfected quiescent Vero-B cells
Reported Endpoint: CC50 at 4 days

molecule="COc1cccc(NC(C(=O)N2CCc3ccccc32)c2ccccc2)c1 (stereo not drawn) [CPD-056]" observed_value="> 139 µM"
molecule="COc1cccc(NC(C(=O)c2nn(C)c3ccccc23)c2ccc(OC)nc2)c1 (stereo not drawn) [CPD-264]" observed_value="> 124 µM"
molecule="COc1cccc(NC(C(=O)c2c[nH]c3ccccc23)c2ccc(O)nc2)c1 (stereo not drawn) [CPD-063]" observed_value="> 134 µM"

----------
assay: in vitro; details: African green monkey, uninfected quiescent Vero-B cells
Reported Endpoint: CC50 at 4 days

molecule="CC(NC(C(=O)c1c[nH]c2ccccc12)c1ccccc1)c1ccco1 (stereo not shown) [CPD-180]" observed_value="> 145 µM"
molecule="COc1cccc(NC(C(=O)c2nn(C)c3ccccc23)c2cnc(OC)cn2)c1 (stereo not shown) [CPD-272]" observed_value="> 124 µM"
molecule="COc1cc(NC(C(=O)c2nn(C)c3ccccc23)c2ccccc2)cc(OC)c1 (stereo not shown) [CPD-265]" observed_value="> 124 µM"
molecule="COc1cccc(NC(C(=O)c2cn(S(=O)(=O)C3CCOC3)c3ccccc23)c2ccccc2)c1 (stereo not shown) [CPD-208]" observed_value="> 102 µM"
molecule="COc1cccc(NC(C(=O)c2c[nH]c3ccccc23)c2ccc3c(c2)n(C)c(=O)n3C)c1 (stereo not shown) [CPD-060]" observed_value="> 113 µM"
molecule="COc1cccc(NC(C(=O)c2nn(C)c3ccc(C#N)cc23)c2ccccc2)c1 (stereo not shown) [CPD-275]" observed_value="> 126 µM"
molecule="COc1cccc(NC(C(=O)c2c[nH]c3c(C)cccc23)c2ccccc2)c1 (stereo not shown) [CPD-224]" observed_value="> 134 µM"

----------
assay: in vitro; conditions: African green monkey, uninfected quiescent Vero-B cells
Reported CC50 at 4 days values follow for various molecules
Reported Endpoint: CC50 at 4 days (µM)

molecule="COc1cc(NC(C(=O)c2cn(C)c3ccccc23)c2ccccc2)ccn1 (stereo not shown)" reported_endpoint="CC50 at 4 days" measure_unit=µM readout_relation== observed_value=42
molecule="COc1cccc(NC(C(=O)c2c[nH]c3ccccc23)c2cccc(C#N)c2)c1 (stereo not shown)" reported_endpoint="CC50 at 4 days" measure_unit=µM readout_relation== observed_value=14
molecule="COc1cc(CO)cc(NC(C(=O)c2c[nH]c3ccc(F)cc23)c2cccnc2)c1 (stereo not shown)" reported_endpoint="CC50 at 4 days" measure_unit=µM readout_relation== observed_value=122
molecule="COc1cccc(NC(C(=O)c2cn(C)c3ccc(F)cc23)c2ccccc2)c1 (stereo not shown)" reported_endpoint="CC50 at 4 days" measure_unit=µM readout_relation=> observed_value=128

----------
assay: in vitro; conditions: African green monkey, uninfected quiescent Vero-B cells
Reported CC50 at 4 days values follow for various compounds
Reported Endpoint: CC50 at 4 days

compound="COc1cccc(NC(C(=O)c2cnc3ccccn23)c2ccccc2)c1 (stereo not drawn)" observed_value="> 139 µM"
compound="COc1cccc(NC(C(=O)c2nn(C)c3ccccc23)c2ccc(C#N)cc2)c1 (stereo not drawn)" observed_value="> 126 µM"
compound="COc1cncc(NC(C(=O)c2c[nH]c3ccccc23)c2cccnc2)n1 (stereo not drawn)" observed_value="> 139 µM"
compound="O=C(c1c[nH]c2ccccc12)C(Nc1ccnc(O)c1)c1ccccc1 (stereo not drawn)" observed_value="> 145 µM"
compound="COc1cccc(NC(C(=O)c2c[nH]c3cc(N4CCOCC4)ccc23)c2ccccc2)c1 (stereo not drawn)" observed_value="> 113 µM"
compound="COc1cccc(NC(C(=O)c2c[nH]c3ccccc23)c2ccc(CN(C)C)cc2)c1 (stereo not drawn)" observed_value="3 µM"
compound="COc1cccc(NC(C(=O)c2cn(S(C)(=O)=O)c3ccccc23)c2ccccc2)c1 (stereo not drawn)" observed_value="> 115 µM"
compound="O=C(c1c[nH]c2ccccc12)C(NCc1ccco1)c1ccccc1 (stereo not drawn)" observed_value="> 151 µM"
compound="O=C(c1c[nH]c2ccccc12)C(NCc1ccccn1)c1ccccc1 (stereo not drawn)" observed_value="> 146 µM"
compound="COc1cccc(NC(C(=O)c2c[nH]c3ccccc23)c2ccc(-c3cncnc3)cc2)c1 (stereo not drawn)" observed_value="> 115 µM"
compound="COc1cncc(NC(C(=O)c2nn(C)c3ccccc23)c2ccccc2)n1 (stereo not drawn)" observed_value="23 µM"
compound="COc1cccc(NC(C(=O)c2c[nH]c3ncc(F)cc23)c2ccccc2)c1 (stereo not drawn)" observed_value="> 124 µM"
compound="O=C(c1c[nH]c2ccccc12)C(Nc1cccc(Cl)c1)c1ccccc1 (stereo not drawn)" observed_value="6 µM"
compound="COc1cccc(NC(C(=O)c2c[nH]c3ccccc23)c2ccc(C(F)(F)F)nc2)c1 (stereo not drawn)" observed_value="13 µM"
compound="COc1cccc(NC(C(=O)c2c[nH]c3cc(O)ccc23)c2ccccc2)c1 (stereo not drawn)" observed_value="49 µM"

----------
system: uninfected quiescent Vero-B cells; assay: Cytotoxic assay in uninfected quiescent Vero-B cells (MTS/PMS); details: 4 days (Table 3)
Reported CC50 values follow for various compounds
Reported Endpoint: CC50 (µM)

compound="COc1cccc(NC(C(=O)c2c[nH]c3ccccc23)c2nc3ccccc3o2)c1 (stereo not drawn)" observed_value=13
compound="COc1cccc(NC(C(=O)c2c[nH]c3cc(F)ccc23)c2ccccc2)c1 (stereo not drawn)" observed_value=15
compound="COc1cc(NC(C(=O)c2c[nH]c3ccccc23)c2ccccc2)cc(OCCN(C)C)c1 (stereo not drawn)" observed_value=13
